Field: pKd. Provide a value for each of the compounds that follow.
molecular target: CNOT7 (Homo sapiens); construct: biotin (biotinylated); purchased Ichor Life Sciences; assay: Binding of compounds to CNOT7 by surface plasmon resonance (SPR); settings: dissociation constant by SPR, Table 7
pKd: −log10 of the molar value.

Examples with answers:
C#CCOCCOCCOCC(Sc1nc(=O)[nH]cc1C)C(=O)NC(C)c1ccc(OC)cc1F (stereo not shown) [Compound I-326] | 4.60 to 6.00
COC[C@H](Sc1nc(=O)[nH]cc1Cl)C(=O)N[C@H](C)c1ccc2c(c1)CC(=O)N2 [Compound I-334] | 4.60 to 6.00
COc1ccc(C(CN(C)C)NC(=O)CSc2nc(=O)[nH]cc2C)cc1 (stereo not shown) [Compound I-340] | < 4.60

Enquiry: Which pKd is listed for COCCN1CCN(CCC(Sc2nc(=O)[nH]cc2C)C(=O)NCc2ccc(OC)cc2)CC1 (stereo not shown) [Compound I-499] ?
Return: 4.60 to 6.00

====

Field: pKd. Provide a value for each of the compounds that follow.
Target: CNOT7 (Homo sapiens, UniProt Q9UIV1)
Construct: biotin (biotinylated); purchased Ichor Life Sciences
Sequence (Q9UIV1 whole entry): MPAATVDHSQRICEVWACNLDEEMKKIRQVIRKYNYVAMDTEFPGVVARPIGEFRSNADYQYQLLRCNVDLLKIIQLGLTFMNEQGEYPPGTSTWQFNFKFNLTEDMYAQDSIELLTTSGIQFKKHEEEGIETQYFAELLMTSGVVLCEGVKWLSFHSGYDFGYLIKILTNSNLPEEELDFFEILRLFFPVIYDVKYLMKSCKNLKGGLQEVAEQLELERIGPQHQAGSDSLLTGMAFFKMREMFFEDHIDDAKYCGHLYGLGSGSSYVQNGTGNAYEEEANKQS
Assay: Binding of compounds to CNOT7 by surface plasmon resonance (SPR)
Settings: dissociation constant by SPR, Table 7
Experimental: Surface plasmon resonance (SPR) was used to evaluate the binding of compounds to CNOT7. Experiments were performed on a Biacore 8K (Cytiva) with a running buffer consisting of 20 mM HEPES pH7.5, 100 mM KCl, 3 mM MgCl2, 1 mM TCEP, 0.05% tween-20, 2% DMSO. Briefly, biotinylated CNOT7 (Ichor Life Sciences) at a concentration of 70 μg/ml was immobilized to a streptavidin coated chip (Cytiva sensor chip SA) for 1200 sec at a flow rate of 5 μl/min (typical immobilization level 7,500 RU). […]
pKd: −log10 of the molar value.

Examples with answers:
COc1ccc(CNC(=O)[C@H](COCCOCCOCCn2cc(COCCOCCOc3ccc(NC(=O)Nc4nc(CC(=O)N5CCN(C)CC5)cs4)cc3)nn2)Sc2nc(=O)[nH]cc2C)cc1 | 4.60 to 6.00
C#CCOCCOCCOCCOC[C@H]1CN(C(=O)CSc2nc(=O)[nH]cc2Cl)[C@@H](C)c2ccc(OC)cc21 | 4.60 to 6.00
COc1ccc([C@@H](C)NC(=O)[C@@H](CCOCCOCCOCCn2cc(COCCOCCOCCOCCOc3ccc(NC(=O)Nc4nc(CC(=O)N5CCN(C)CC5)cs4)cc3)nn2)Sc2nc(=O)[nH]cc2Cl)c(F)c1 | 4.60 to 6.00

Batch: pKd for all items listed.
1. C#CCOCCOCCOCCOC[C@@H]1Cc2cc(OC)ccc2[C@@H](C)N1C(=O)CSc1nc(=O)[nH]cc1Cl
2. COc1ccc2c(c1)CCN(C(=O)[C@@H](COCCOCCOCCN=[N+]=[N-])Sc1nc(=O)[nH]cc1C)[C@@H]2C
3. COc1ccc(CNC(=O)[C@@H](COCCOCCOCCn2cc(COCCOCCOc3ccc(NC(=O)Nc4nc(CC(=O)N5CCN(C)CC5)cs4)cc3)nn2)Sc2nc(=O)[nH]cc2C)c(F)c1
4. COCC(Sc1nc(=O)[nH]cc1Cl)C(=O)NC(C)c1ccc2c(c1)CC(=O)N2 (stereo not drawn)

Return:
1. 4.60 to 6.00
2. < 4.60
3. 4.60 to 6.00
4. 4.60 to 6.00

Batch: pKd for all items listed.
1. COc1ccc(CNC(=O)C(CCC(=O)N2CCN(C)CC2)Sc2nc(=O)[nH]cc2C)cc1 (stereo not drawn)
2. COc1ccc2c(c1)C[C@@H](COCCOCCOCCOCCn1cc(COCCOCCOCCOCCOc3ccc(NC(=O)Nc4nc(CC(=O)N5CCN(C)CC5)cs4)cc3)nn1)N(C(=O)CSc1nc(=O)[nH]cc1C)C2
3. COc1cc(F)c2c(c1)CCN(C(=O)CSc1nc(=O)[nH]cc1Cl)C2
4. COC[C@H](Sc1nc(=O)[nH]cc1C)C(=O)NCc1ccc2c(c1)CC(=O)N2C
5. COc1ccc2c(c1)C[C@@H](COCCOCCOCCOCCn1cc(COCCOCCOc3ccc(NC(=O)Nc4nc(CC(=O)N5CCN(C)CC5)cs4)cc3)nn1)C(C(=O)CSc1nc(=O)[nH]cc1C)C2 (stereo partly drawn)

Return:
["< 4.60", "< 4.60", "< 4.60", "4.60 to 6.00", "< 4.60"]

From: patent US20260199485A1
